Origin of measurements: paper PMC6724035

Reported tissue uptake at 0.5 h values follow for various molecules
Experiment: in vivo
Details: mouse, muscle, iv, 40 pmol, Uptake, muscle, 0.5 h after injection; 40 pmol i.v.
Description: Animal studies were planned and performed in agreement with EU Directive 2010/63/EU for animal experiments and Swedish national legislation concerning protection of laboratory animals. […] Mice were euthanized followed by dislocation of their neck at 0.5 h after injection and blood samples were collected by heart puncture. […] The organ radioactivity was measured in a gamma-counter and uptake values of organs were calculated as percentage of injected dose per gram tissue (% ID/g). […]
Where a SMILES comes first, the peptide text is derived from it. [ ]: non-standard residue; d: D form. Tyr(3-I) = N[C@@H](Cc1ccc(O)c(I)c1)C(=O)O; Sta = CC(C)C[C@H](N)[C@@H](O)CC(=O)O; AEEA = NCCOCCOCC(=O)O

[
  {
    "molecule": "CC(C)C[C@H](NC(=O)C[C@H](O)[C@H](CC(C)C)NC(=O)[C@H](Cc1c[nH]cn1)NC(=O)CNC(=O)[C@@H](NC(=O)[C@H](C)NC(=O)[C@H](Cc1c[nH]c2ccccc12)NC(=O)[C@H](CCC(N)=O)NC(=O)[C@@H](Cc1ccccc1)NC(=O)COCCOCCNC(=O)[C@@H](N)Cc1ccc(O)c(I)c1)C(C)C)C(N)=O [[^125I]I-Tyr-PEG2-RM26] (H-[Tyr(3-I)][AEEA][dF]QWAVGH[Sta]L-NH2)",
    "tissue uptake at 0.5 h, %ID/g": 2
  },
  {
    "molecule": "CC(C)C[C@H](NC(=O)C[C@H](O)[C@H](CC(C)C)NC(=O)[C@H](Cc1c[nH]cn1)NC(=O)CNC(=O)[C@@H](NC(=O)[C@H](C)NC(=O)[C@H](Cc1c[nH]c2ccccc12)NC(=O)[C@H](CCC(N)=O)NC(=O)[C@@H](Cc1ccccc1)NC(=O)COCCOCCNC(=O)CN1CCN(CC(=O)O)CCN(CC(=O)O)CCN(CC(=O)O)CC1)C(C)C)C(N)=O [[^111In]In-DOTA-PEG2-RM26, metal not drawn, reference compound]",
    "tissue uptake at 0.5 h, %ID/g": 0.4
  }
]

* * *

test: in vivo; details: mouse, small intestine, iv, 40 pmol, Uptake, small intestine, 3 h after injection; 40 pmol i.v.
Where a SMILES comes first, the peptide text is derived from it. [ ]: non-standard residue; d: D form. Tyr(3-I) = N[C@@H](Cc1ccc(O)c(I)c1)C(=O)O; Sta = CC(C)C[C@H](N)[C@@H](O)CC(=O)O; AEEA = NCCOCCOCC(=O)O

[
  {
    "compound": "CC(C)C[C@H](NC(=O)C[C@H](O)[C@H](CC(C)C)NC(=O)[C@H](Cc1c[nH]cn1)NC(=O)CNC(=O)[C@@H](NC(=O)[C@H](C)NC(=O)[C@H](Cc1c[nH]c2ccccc12)NC(=O)[C@H](CCC(N)=O)NC(=O)[C@@H](Cc1ccccc1)NC(=O)COCCOCCNC(=O)CN1CCN(CC(=O)O)CCN(CC(=O)O)CCN(CC(=O)O)CC1)C(C)C)C(N)=O [[^111In]In-DOTA-PEG2-RM26, metal not drawn, reference compound]",
    "tissue uptake at 3 h / %ID/g": 0.2
  },
  {
    "compound": "CC(C)C[C@H](NC(=O)C[C@H](O)[C@H](CC(C)C)NC(=O)[C@H](Cc1c[nH]cn1)NC(=O)CNC(=O)[C@@H](NC(=O)[C@H](C)NC(=O)[C@H](Cc1c[nH]c2ccccc12)NC(=O)[C@H](CCC(N)=O)NC(=O)[C@@H](Cc1ccccc1)NC(=O)COCCOCCNC(=O)[C@@H](N)Cc1ccc(O)c(I)c1)C(C)C)C(N)=O [[^125I]I-Tyr-PEG2-RM26] (H-[Tyr(3-I)][AEEA][dF]QWAVGH[Sta]L-NH2)",
    "tissue uptake at 3 h / %ID/g": 1.8
  }
]
